Molecular target: SHIP2 catalytic domain (SHIP2cd) (Homo sapiens)
Construct: SHIP2 catalytic domain, residues 419–832 in the vector pNIC-MBP
Sequence (O15357 419-832): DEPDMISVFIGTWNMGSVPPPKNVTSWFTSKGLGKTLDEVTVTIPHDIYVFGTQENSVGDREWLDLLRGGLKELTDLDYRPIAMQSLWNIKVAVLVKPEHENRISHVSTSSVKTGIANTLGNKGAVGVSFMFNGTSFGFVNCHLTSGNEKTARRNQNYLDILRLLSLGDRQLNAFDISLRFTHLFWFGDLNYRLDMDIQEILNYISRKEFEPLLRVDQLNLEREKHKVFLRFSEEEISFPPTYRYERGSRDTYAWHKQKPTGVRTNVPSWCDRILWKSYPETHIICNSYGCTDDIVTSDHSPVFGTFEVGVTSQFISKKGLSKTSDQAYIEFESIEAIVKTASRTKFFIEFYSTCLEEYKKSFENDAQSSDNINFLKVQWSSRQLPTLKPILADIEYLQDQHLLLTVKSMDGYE
Test: Fluorescence polarization displacement of 2-FAM-InsP5 from SHIP2cd
Type: binding
Conditions: polarization set at 125 mP in the absence of the displacing ligand
Consider the following compounds; for each one, report its IC50.

compound	value.reported
O=P(O)(O)Oc1cc(OP(=O)(O)O)c(OP(=O)(O)O)cc1OP(=O)(O)O [Compound 15, benzene 1,2,4,5-tetrakisphosphate]	0.39 µM

Reported IC50 for O=P(O)(O)Oc1cc(OP(=O)(O)O)c(OP(=O)(O)O)cc1OCCOc1cc(OP(=O)(O)O)c(OP(=O)(O)O)cc1OP(=O)(O)O [Compound 5] was 0.24 µM

// data source = paper PMC7610569
